// data source = PubChem BioAssay (EPA / NIEHS)

# PROTOCOL DETAILS: ATG_PXRE_CIS: Attagene CIS-FACTORIAL HepG2 Assay for human Pregnane X Receptor Element (PXRE) (AID 2282957)
# ASSAY SETUP: HepG2 Attagene CIS-FACTORIAL PXRE reporter, mRNA; actives raise or lower the signal
Calls of active or inactive are those of the source. How the source made its calls: active means hit-call score of the fitted dose curve at least 0.9, where 1 is the maximum; inactive means score below 0.9.
Possible outcomes: active, inactive

{"STRUCTURE STRING": "COc1ncc(F)c2nc(S(=O)(=O)Nc3c(F)cccc3F)nn12", "CAT": "active"}
{"STRUCTURE STRING": "O=[N+]([O-])c1cc([N+](=O)[O-])c2ccccc2c1", "CAT": "active"}
{"STRUCTURE STRING": "CN(C)N", "CAT": "inactive"}
{"STRUCTURE STRING": "CCNCC", "CAT": "inactive"}
{"STRUCTURE STRING": "COC(=O)COc1ccc(Cl)cc1Cl", "CAT": "inactive"}
{"STRUCTURE STRING": "CCc1cc(C)cc(CC)c1-c1c(OC(=O)C(C)(C)C)n2n(c1=O)CCOCC2", "CAT": "active"}
{"STRUCTURE STRING": "O=C(CCN1CC1)OCC(CO)(COC(=O)CCN1CC1)COC(=O)CCN1CC1", "CAT": "inactive"}
{"STRUCTURE STRING": "CNC(=O)Oc1cc(C)c(SC)c(C)c1", "CAT": "active"}
{"STRUCTURE STRING": "CCC[N+](=O)[O-]", "CAT": "inactive"}
{"STRUCTURE STRING": "COc1ccc(CO)cc1", "CAT": "inactive"}
{"STRUCTURE STRING": "C=C(Cl)Cl", "CAT": "active"}
{"STRUCTURE STRING": "CCCCCCCCCCCCCCCC[N+](C)(C)C", "CAT": "active"}
{"STRUCTURE STRING": "[CH3][Sn]([CH3])([Cl])[Cl]", "CAT": "inactive"}
{"STRUCTURE STRING": "CCOP(O)OCC", "CAT": "active"}
{"STRUCTURE STRING": "C=CC(=O)OCCO", "CAT": "inactive"}
{"STRUCTURE STRING": "O=C(O)CCCc1ccc(N(CCCl)CCCl)cc1", "CAT": "inactive"}

* * *

# PROTOCOL DETAILS: ATG_CMV_CIS: Attagene CIS-FACTORIAL HepG2 Assay for human CMV (Internal Marker) (AID 2282928);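 further: endpoint acts as a background internal control marker rather than a target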
# ASSAY SETUP: HepG2 CMV promoter reporter, transcription factor profiling; actives raise or lower the signal
Activity calls are given as the source filed them. The calls were made as follows: active = hit-call score of the fitted dose curve at least 0.9, where 1 is the maximum; inactive = score below 0.9.

{"COMPOUND": "CCOC(=O)N(C)N=O", "AC50": "inactive"}
{"COMPOUND": "CCC(C)c1cc(C(C)(C)C)cc(-n2nc3ccccc3n2)c1O (centres undefined)", "AC50": "inactive"}
{"COMPOUND": "SCc1ccco1", "AC50": "62.8 µM (active)"}
{"COMPOUND": "CN(C)CCC#N", "AC50": "inactive"}
{"COMPOUND": "O=P(O)(Oc1ccccc1)Oc1ccccc1", "AC50": "inactive"}
{"COMPOUND": "COC(C)(C)CCC[C@H](C)C/C=C/C(C)=C/C(=O)OC(C)C", "AC50": "100 µM (active)"}
{"COMPOUND": "O=C(O)C(Br)Br", "AC50": "inactive"}
{"COMPOUND": "CC1(C)CC(=O)CC(C)(C)N1[O]", "AC50": "inactive"}
{"COMPOUND": "O=C(NC(=O)c1c(F)cccc1F)Nc1ccc(Oc2ccc(C(F)(F)F)cc2Cl)cc1F", "AC50": "4.11 µM (active)"}

* * *

# Read-out: Monocyte Chemoattractant Protein-1 (MCP1), CCL2 (gene 6347)
# PROTOCOL DETAILS: BSK_4H_MCP1: BioMAP Diversity Plus: 4H Assay for Monocyte Chemoattractant Protein-1 (MCP1) Biomarker Activity (AID 2283018)
# ASSAY SETUP: primary human endothelial cells (HUVEC); actives raise or lower the signal
Active and inactive are the calls of the source. The calls were made as follows: active = hit-call score of the fitted dose curve at least 0.9, where 1 is the maximum; inactive = score below 0.9.
Possible outcomes: active, inactive

{"MOLECULE": "[Cd+2].[Cl-].[Cl-]", "CAT": "inactive"}
{"MOLECULE": "CC(C)(C)C(O)C(Oc1ccc(-c2ccccc2)cc1)n1cncn1 (configuration not stated)", "CAT": "active"}
{"MOLECULE": "O=[N+]([O-])c1ccc(Cl)cc1", "CAT": "inactive"}
{"MOLECULE": "c1ccc(Nc2ccc3ccccc3c2)cc1", "CAT": "active"}
{"MOLECULE": "Nc1ccc(-c2ccc(N)c(N)c2)cc1N", "CAT": "active"}
{"MOLECULE": "O=c1c2ccccc2c(=O)c2c1cc(Cl)c1[nH]c3c([nH]c12)c(Cl)cc1c(=O)c2ccccc2c(=O)c13", "CAT": "inactive"}
{"MOLECULE": "CNC(=O)Oc1cc(C)c(SC)c(C)c1", "CAT": "inactive"}
{"MOLECULE": "O=S(=O)(c1ccccc1)c1ccccc1", "CAT": "inactive"}
{"MOLECULE": "COCC(=O)N(c1c(C)cccc1C)N1CCOC1=O", "CAT": "inactive"}
{"MOLECULE": "O=C(CCl)c1ccccc1", "CAT": "active"}
{"MOLECULE": "CCc1cc(C)cc(CC)c1-c1c(OC(=O)C(C)(C)C)n2n(c1=O)CCOCC2", "CAT": "inactive"}
{"MOLECULE": "CCCCCCCCCCCC#N", "CAT": "active"}

* * *

# Read-out: Matrix Metallopeptidase 9 (MMP9), MMP9 (gene 4318)
# PROTOCOL DETAILS: BSK_KF3CT_MMP9: BioMAP Diversity Plus: KF3CT Assay for Matrix Metallopeptidase 9 (MMP9) Biomarker Activity (AID 2283074)
# ASSAY SETUP: primary human keratinocytes with fibroblasts; actives raise or lower the signal
Activity calls are given as the source filed them. The calls were made as follows: active = hit-call score of the fitted dose curve at least 0.9, where 1 is the maximum; inactive = score below 0.9.
Possible outcomes: label 1 = active, label 0 = inactive

{"COMPOUND": "Cc1ccc(OP(=O)(Oc2ccc(C)cc2)Oc2ccc(C)cc2)cc1 (tested in a mixture with another compound)", "CAT": "label 1"}
{"COMPOUND": "O=[N+]([O-])O", "CAT": "label 0"}
{"COMPOUND": "O=C1C(Cl)=C(Cl)C(=O)C(Cl)=C1Cl", "CAT": "label 1"}
{"COMPOUND": "O=[N+]([O-])c1ccc(Cl)cc1", "CAT": "label 0"}
{"COMPOUND": "COCC(=O)N(c1c(C)cccc1C)N1CCOC1=O", "CAT": "label 0"}
{"COMPOUND": "CCCOC(=O)c1ccccc1C(=O)OCCC", "CAT": "label 0"}
{"COMPOUND": "C=CCN(CC=C)C(=O)C(Cl)Cl", "CAT": "label 0"}
{"COMPOUND": "O=c1[nH]c(Cl)c(Cl)cc1Cl", "CAT": "label 0"}
{"COMPOUND": "CNC(=O)Oc1cc(C)c(SC)c(C)c1", "CAT": "label 0"}
{"COMPOUND": "O=S(=O)(c1ccccc1)c1ccccc1", "CAT": "label 0"}
{"COMPOUND": "COC(C)(C)CCC[C@H](C)C/C=C/C(C)=C/C(=O)OC(C)C", "CAT": "label 1"}
{"COMPOUND": "c1ccc(Nc2ccc3ccccc3c2)cc1", "CAT": "label 1"}
{"COMPOUND": "CC(C)CCCCCCCOC(=O)c1ccccc1C(=O)OCCCCCCCC(C)C", "CAT": "label 0"}
{"COMPOUND": "CC(C)COP(=O)(OCC(C)C)OCC(C)C", "CAT": "label 0"}
{"COMPOUND": "COc1ccc(CO)cc1", "CAT": "label 0"}
{"COMPOUND": "C=CC(=O)OCC(CC)CCCC (configuration not stated)", "CAT": "label 0"}
{"COMPOUND": "Nc1ccc(-c2ccc(N)c(N)c2)cc1N", "CAT": "label 1"}

* * *

# Read-out: urokinase plasminogen activator (uPA), PLAU (gene 5328)
# PROTOCOL DETAILS: BSK_KF3CT_uPA: BioMAP Diversity Plus: KF3CT Assay for urokinase plasminogen activator (uPA) Biomarker Activity (AID 2283075)
# ASSAY SETUP: primary human keratinocytes with fibroblasts; actives raise or lower the signal
Calls of active or inactive are those of the source. How the source made its calls: active means hit-call score of the fitted dose curve at least 0.9, where 1 is the maximum; inactive means score below 0.9.
Possible outcomes: yes for active, no for inactive

{"MOLECULE": "Oc1cc(Cl)ccc1Cl", "CAT": "no"}
{"MOLECULE": "CC1(C)[C@H](C(=O)O[C@H](C#N)c2cccc(Oc3ccccc3)c2)[C@@H]1C=C(Br)Br", "CAT": "no"}
{"MOLECULE": "c1ccc(Nc2ccc3ccccc3c2)cc1", "CAT": "yes"}
{"MOLECULE": "COC(C)(C)CCC[C@H](C)C/C=C/C(C)=C/C(=O)OC(C)C", "CAT": "no"}
{"MOLECULE": "O=[N+]([O-])c1ccc(Cl)cc1", "CAT": "no"}
{"MOLECULE": "O=[N+]([O-])C=Cc1ccccc1", "CAT": "yes"}
{"MOLECULE": "Cc1ccc(OP(=O)(Oc2ccc(C)cc2)Oc2ccc(C)cc2)cc1 (tested in a mixture with another compound)", "CAT": "no"}
{"MOLECULE": "CNC(=O)Oc1cc(C)c(SC)c(C)c1", "CAT": "no"}
{"MOLECULE": "CC(C)CCCCCCCOC(=O)c1ccccc1C(=O)OCCCCCCCC(C)C", "CAT": "no"}
{"MOLECULE": "CC(C)(C)C(O)C(Oc1ccc(-c2ccccc2)cc1)n1cncn1 (configuration not stated)", "CAT": "no"}
{"MOLECULE": "CCCC[N+](CCCC)(CCCC)CCCC", "CAT": "no"}
{"MOLECULE": "O=P1(NCCCl)OCCCN1CCCl (configuration not stated)", "CAT": "no"}
{"MOLECULE": "CCc1cc(C)cc(CC)c1-c1c(OC(=O)C(C)(C)C)n2n(c1=O)CCOCC2", "CAT": "no"}
{"MOLECULE": "O=C(O)CCCc1ccc(N(CCCl)CCCl)cc1", "CAT": "no"}
{"MOLECULE": "O=C1C(Cl)=C(Cl)C(=O)C(Cl)=C1Cl", "CAT": "yes"}
{"MOLECULE": "CCCOC(=O)c1ccccc1C(=O)OCCC", "CAT": "no"}
{"MOLECULE": "C=CC(=O)OCC(CC)CCCC (configuration not stated)", "CAT": "yes"}
{"MOLECULE": "C=CCN(CC=C)C(=O)C(Cl)Cl", "CAT": "no"}
{"MOLECULE": "CC(C)(c1cc(Cl)c(O)c(Cl)c1)c1cc(Cl)c(O)c(Cl)c1", "CAT": "yes"}
{"MOLECULE": "CCCCCCCCCCCC#N", "CAT": "no"}
{"MOLECULE": "Clc1ccc(-c2ccccc2)cc1", "CAT": "no"}
{"MOLECULE": "N#CCCCCC#N", "CAT": "no"}
